System: HEK-293T
assay: Multiplex assay against HEK293T
Format: toxicity, cell-based
experimental-context: human, 48 h, 10 µM, compound concentration 10 uM, replicate 2
quantity: Population Mitotic Cells (%)

* Cc1ccc(C(=O)Nc2cccc(C(F)(F)F)c2)cc1Nc1nc(-c2cccnc2)nc2c1cnn2C | 10
* O=C1NC(=O)C(c2cnc3ccccn23)=C1c1cn2c3c(cc(F)cc13)CN(C(=O)N1CCCCC1)CC2 | 21
* CN1CCC(=C2c3ccccc3CC(=O)c3sccc32)CC1.O=C(O)/C=C/C(=O)O [KETOTIFEN FUMARATE] | 27
* CCOc1cc(C(=O)N2CCC(N3CCN(C)CC3)CC2)ccc1Nc1ncc2c(n1)N(C1CCCC1)c1ccccc1C(=O)N2C | 1
* O=C(Nc1ccc(-c2ccnc(Nc3ccc(N4CCOCC4)cc3)n2)cc1)[C@@H]1CCCN1 | 63
* Cl.Oc1ccc2c3c1O[C@H]1c4[nH]c5c(c4C[C@@]4(O)[C@@H](C2)N(CC2CC2)CC[C@]314)C[C@@]1(O)[C@H]2Cc3ccc(O)c4c3[C@@]1(CCN2CC1CC1)[C@H]5O4 | 85
* O=C(Nc1ccc(-n2nc(-c3cccnc3)cc2C(F)(F)F)cn1)c1ccc(-c2ccccc2)c(F)c1 | 92
* CCc1cccc(CC)c1NC(=O)c1nn(C)c2c1CCc1cnc(Nc3ccc(C(=O)NC4CCN(C)CC4)cc3OC(F)(F)F)nc1-2 | 8
* CN(C)C(=O)C(CCN1CCC(O)(c2ccc(Cl)cc2)CC1)(c1ccccc1)c1ccccc1.Cl [LOPERAMIDE HYDROCHLORIDE] | 1
* COc1cc(N2CCN(C)CC2)ccc1Nc1ncc2c(n1)N(C)c1ccccc1C(=O)N2C | 29
* CCOC(=O)c1c(C)[nH]c2ccc3c(c12)CN1CCc2cc(OC)ccc2C1O3 (stereo not given) | 6
* COCC(=O)NC/C=C/c1ccc2ncnc(Nc3ccc(Oc4ccc(C)nc4)c(C)c3)c2c1 | 33
* S=C(NCCCc1c[nH]cn1)NCCCN(Cc1ccc(Cl)c(Cl)c1)c1ccc(Br)cn1 | 12
* O=C1N/C(=N/c2ccccc2F)S/C1=C\c1ccc(C(=O)O)cc1 | 94
* CN1CCN(C(=O)C(C)(C)c2ccc(C(=O)Nc3cn4cc(-c5ccncc5)ccc4n3)cc2)CC1 | 8
* CN1C2CCC1CC(OC(c1ccc(F)cc1)c1ccc(F)cc1)C2.Cl (stereo not given) | 24
* CCOc1cc2ncc(C#N)c(Nc3ccc(OCc4ccccn4)c(Cl)c3)c2cc1NC(=O)/C=C/CN(C)C | 58
* Cc1cn(-c2cc(NC(=O)c3ccc(C)c(Nc4nccc(-c5cccnc5)n4)c3)cc(C(F)(F)F)c2)cn1 | 58
* CCN1CCN(Cc2ccc(Nc3ncc(F)c(-c4cc(F)c5nc(C)n(C(C)C)c5c4)n3)nc2)CC1.CS(=O)(=O)O | 16
* C=C1/C(=C\C=C2/CCC[C@]3(C)[C@@H]([C@H](C)/C=C/[C@H](C)C(C)C)CC[C@@H]23)C[C@@H](O)C[C@@H]1O | 77
* Cl.O=C(c1ccc(Nc2nccc(-c3cc4ccccc4s3)n2)cc1)N1CCC(N2CCCC2)CC1 | 0
* Cc1cc(C)c(S(=O)(=O)N(Cc2ccc(-c3cccc(S(C)(=O)=O)c3)cc2)Cc2ccc(C(F)(F)F)o2)c(C)c1 | 84
* CCCn1c(=O)c2[nH]c(-c3cnn(Cc4cccc(C(F)(F)F)c4)c3)nc2n(CC)c1=O | 81
* O=C(Nc1ccc(Cl)cc1)Nc1cccc(-c2cccc(N3CCCC3)n2)c1 | 47
* O=C(Cc1ccc(-c2ccc(OCCN3CCOCC3)cc2)cn1)NCc1ccccc1 | 63

---

Test system: Fibroblast
assay: Multiplex assay against human fibroblast
Assay type: toxicity, cell-based
experimental-context: 12 h, 1 µM, compound concentration 1 uM, replicate 2
quantity: Population Tubulin-Different-Phenotype (%)

* CCN1CCN(Cc2ccc(Nc3ncc(F)c(-c4cc(F)c5nc(C)n(C(C)C)c5c4)n3)nc2)CC1.CS(=O)(=O)O | 97
* COc1cc2ncnc(Nc3ccc(F)c(Cl)c3)c2cc1NC(=O)/C=C/CN1CCCCC1 [DACOMITINIB ANHYDROUS] | 25
* NC(=O)c1cccc(-c2cc(Nc3ccc(OC(F)(F)F)cc3)ncn2)c1 | 3
* CN1CCN(C(=O)C(C)(C)c2ccc(C(=O)Nc3cn4cc(-c5cc(C(C)(C)C)cc(C(C)(C)C)c5)ccc4n3)cc2)CC1 | 22
* O=C1NC(=O)C(c2cnc3ccccn23)=C1c1cn2c3c(cc(F)cc13)CN(C(=O)N1CCCCC1)CC2 | 22
* O=C1N/C(=N/c2ccccc2F)S/C1=C\c1ccc(C(=O)O)cc1 | 24
* CCNc1cc(N[C@H]2CC[C@H](O)CC2)nc(Nc2ccc3c(ccn3Cc3ccccc3)c2)n1 | 34
* CCCS(=O)(=O)Nc1ccc(F)c(C(=O)c2c[nH]c3ncc(Cl)cc23)c1F | 27
* CN1C2CCC1CC(OC(c1ccc(F)cc1)c1ccc(F)cc1)C2.Cl (centres undefined) | 8

---

System: HEK-293T
assay: Multiplex assay against HEK293T
Type: toxicity, cell-based
experimental-context: human, 24 h, 10 µM, compound concentration 10 uM, replicate 2
A collection of compounds and their measured Population Healthy Nuclei (%)
quantity: Population Healthy Nuclei (%)

- Cc1cc(C)c(S(=O)(=O)N(Cc2ccc(-c3cccc(S(C)(=O)=O)c3)cc2)Cc2ccc(C(F)(F)F)o2)c(C)c1: 72
- Cn1nc(C(F)(F)F)cc1-c1cnc(N2CCc3cc(S(=O)(=O)Nc4c(F)cc(Cl)cc4F)cc(N4CCCC4=O)c32)nc1 [TP-020]: 71
- COc1ccc(-c2ccc3c(N4CCOCC4)nc(N4C[C@@H](C)O[C@@H](C)C4)nc3n2)cc1CO [Ku-0063794]: 71
- CCCS(=O)(=O)Nc1ccc(F)c(C(=O)c2c[nH]c3ncc(Cl)cc23)c1F [PLX-4720]: 68

---

System: U2OS
assay: Multiplex assay against U2OS
Type: toxicity, cell-based
experimental-context: human, 48 h, 10 µM, compound concentration 10 uM, replicate 1
quantity: Population Tubulin-Different-Phenotype (%)

• CCCS(=O)(=O)c1nc(NC2CC2)cc(-c2ccc3c(ccn3C3CC(C)(C)NC(C)(C)C3)c2)n1 = 75
• CNc1cc(Oc2cc(C(=O)Nc3cc(N4CCN(C)CC4)cc(C(F)(F)F)c3)ccc2C)ncn1 = 100
• COc1cc(N2CCN(C)CC2)ccc1Nc1ncc2c(n1)N(C)c1ccccc1C(=O)N2C = 82
• CCOc1cc(C(=O)N2CCC(N3CCN(C)CC3)CC2)ccc1Nc1ncc2c(n1)N(C1CCCC1)c1ccccc1C(=O)N2C = 100
• COCC(=O)NC/C=C/c1ccc2ncnc(Nc3ccc(Oc4ccc(C)nc4)c(C)c3)c2c1 [CP-724714] = 100
• CN1C2CCC1CC(OC(c1ccc(F)cc1)c1ccc(F)cc1)C2.Cl (stereo unspecified) = 17
• CN(C)C(=O)C(CCN1CCC(O)(c2ccc(Cl)cc2)CC1)(c1ccccc1)c1ccccc1.Cl [LOPERAMIDE HYDROCHLORIDE] = 100
• Cc1cn(-c2cc(NC(=O)c3ccc(C)c(Nc4nccc(-c5cccnc5)n4)c3)cc(C(F)(F)F)c2)cn1 [NILOTINIB] = 40
• CCN1CCN(Cc2ccc(Nc3ncc(F)c(-c4cc(F)c5nc(C)n(C(C)C)c5c4)n3)nc2)CC1.CS(=O)(=O)O = 100
• Cc1cc(C)c(S(=O)(=O)N(Cc2ccc(-c3cccc(S(C)(=O)=O)c3)cc2)Cc2ccc(C(F)(F)F)o2)c(C)c1 = 55
• C=C1/C(=C\C=C2/CCC[C@]3(C)[C@@H]([C@H](C)/C=C/[C@H](C)C(C)C)CC[C@@H]23)C[C@@H](O)C[C@@H]1O [DOXERCALCIFEROL] = 25
• Cl.O=c1c2cccn2c2ccccc2n1CCCN1CCC(c2ccc(Cl)cc2)CC1 = 100
• CCn1c(=O)c(-c2ccc(-c3cncs3)cc2Cl)cc2cnc(Nc3ccc(N4CCN(C)CC4)cc3)nc21 = 50
• S=C(NCCCc1c[nH]cn1)NCCCN(Cc1ccc(Cl)c(Cl)c1)c1ccc(Br)cn1 = 100
• O=C(Nc1ccc(-c2ccnc(Nc3ccc(N4CCOCC4)cc3)n2)cc1)[C@@H]1CCCN1 = 86
• O=C1N/C(=N/c2ccccc2F)S/C1=C\c1ccc(C(=O)O)cc1 = 5

---

Test system: U2OS
assay: Multiplex assay against U2OS
Assay type: toxicity, cell-based
experimental-context: human, 24 h, 10 µM, compound concentration 10 uM, replicate 2
quantity: Population Mitotic Cells (%)

* S=C(NCCCc1c[nH]cn1)NCCCN(Cc1ccc(Cl)c(Cl)c1)c1ccc(Br)cn1 | 0
* O=C(Nc1ccc(-n2nc(-c3cccnc3)cc2C(F)(F)F)cn1)c1ccc(-c2ccccc2)c(F)c1 | 100
* Cn1nc(C(F)(F)F)cc1-c1cnc(N2CCc3cc(S(=O)(=O)Nc4c(F)cc(Cl)cc4F)cc(N4CCCC4=O)c32)nc1 | 50
* COc1ccc(-c2ccc3c(N4CCOCC4)nc(N4C[C@@H](C)O[C@@H](C)C4)nc3n2)cc1CO | 68
* CCN1CCN(c2ccc(Nc3cc(N(C)C(=O)Nc4c(Cl)c(OC)cc(OC)c4Cl)ncn3)cc2)CC1 | 72
* CCCn1c(=O)c2[nH]c(-c3cnn(Cc4cccc(C(F)(F)F)c4)c3)nc2n(CC)c1=O | 50
* CNC(=O)c1ccc(Nc2nc(OC3CCCC3)c3c(-c4ccc5nc(C)oc5c4)c[nH]c3n2)c(OC)c1 | 37

Value source: ChEMBL document CHEMBL4689842
